Origin of values: the supplement of paper PMC9112550

- Tested on: Escherichia coli TOP10;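 note: peptides expressed intracellularly from a pBAD plasmid library in pooled LB shake-flask culture, induced with 0.3% L-arabinose, DNA abundance read by NGS, three biological replicates, DESeq2 with apeglm shrinkage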
- protocol: shrunken log2 fold change of peptide-encoding DNA abundance (4.5 h post-induction vs induction); higher = less antimicrobial activity (less host growth inhibition)
- assay conditions: time post-induction: 4.5 h; library: site-saturation at positions 5, 18, 19, 20
Binning scheme for shrunken log2 fold change: band A (below -0.09), band B (-0.09 to below 0.06), band C (0.06 or more)

sequence input: RRIRARPPRLPRPRPRPMMKPRP
label value: band A
--
sequence input: RRIRNRPPRLPRPRPRPWDRPRP
label value: band B
--
sequence input: RRIRDRPPRLPRPRPRPNFSPRP
label value: band B
--
sequence input: RRIRGRPPRLPRPRPRPVTAPRP
label value: band C

Bin? "RRIRLRPPRLPRPRPRPGAHPRP" band B

Quick check: band for "RRIRFRPPRLPRPRPRPQAKPRP" band C

Band for "RRIRHRPPRLPRPRPRPDLSPRP" ? band B

Record "RRIRCRPPRLPRPRPRPLFLPRP" — which class? band A

Input "RRIRLRPPRLPRPRPRPDISPRP" ; output its category band B

Which bin, given its shrunken log2 fold change, does "RRIRDRPPRLPRPRPRPFGFPRP" occupy? band B

In plain terms, what class is "RRIRVRPPRLPRPRPRPVYQPRP" ? band A

Categorize the following entry: "RRIRYRPPRLPRPRPRPHVCPRP" band A

Form field 'band' for "RRIRARPPRLPRPRPRPKQAPRP" band C

Assign a bin to "RRIRLRPPRLPRPRPRPKSWPRP" band C
